- TARGET_SYSTEM: tau construct K19 (Homo sapiens, UniProt P10636)
- Sequence (P10636 with tags, fused parts or gaps isoform P10636-2 limits assumed): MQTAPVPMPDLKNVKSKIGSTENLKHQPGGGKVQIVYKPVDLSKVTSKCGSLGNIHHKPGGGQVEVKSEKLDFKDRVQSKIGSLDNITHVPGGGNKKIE
- PROTOCOL_SUMMARY: Thioflavine S (ThS) assay for aggregation of tau
- Type: biochemical
MEASURED_PROPERTY: IC50 (µM)
State the answer as a number, implicitly in µM.

**Q:** So what does the record say about IC50 for `O=C(NNc1nc(-c2ccc3ccccc3c2)cs1)c1cc2ccccc2[nH]1` ?
**A:** 130

**Q:** So what does the record say about IC50 for `O=C(NNc1nc(-c2ccc(Cl)cc2)cs1)c1cc2ccccc2[nH]1` ?
**A:** 88.9

**Q:** So what does the record say about IC50 for `CC(C)COc1ccc(-c2csc(NNC(=O)c3cc4ccccc4[nH]3)n2)cc1` ?
**A:** 111

* * *

Exercise: state measured LDH for each of the compounds provided.
- Test system: uninduced N2A cells
- Format: cell-based
- SETTINGS: cell death as percent of LDH released into medium vs total LDH, compound 10 μM
State the answer as a number, implicitly in %.

**Q:** So what does the record say about LDH for `O=C(NNc1nc(-c2ccc([N+](=O)[O-])cc2)cs1)c1ccco1` ?
**A:** 4.9

**Q:** So what does the record say about LDH for `O=C(NNc1nc(-c2ccccc2)cs1)c1ccc2ccccc2c1` ?
**A:** 8.2

**Q:** So what does the record say about LDH for `CC(C)COc1ccc(-c2csc(NNC(=O)c3cc4ccccc4[nH]3)n2)cc1` ?
**A:** −0.6

**Q:** So what does the record say about LDH for `O=C(NNc1nc(-c2cc3ccccc3oc2=O)cs1)c1ccc2ccccc2c1` ?
**A:** 15.7

**Q:** So what does the record say about LDH for `O=C(NNc1nc(-c2ccc(Br)cc2)cs1)c1ccncc1` ?
**A:** 1.5

**Q:** So what does the record say about LDH for `O=C(NNc1nc(-c2ccc(N3CCCC3)cc2)cs1)c1ccc(F)nc1` ?
**A:** 12.2

**Q:** So what does the record say about LDH for `O=C(NNc1nc(-c2ccccc2Br)cs1)c1cc2ccccc2[nH]1` ?
**A:** 0.1

**Q:** So what does the record say about LDH for `O=C(NNc1nc(-c2ccc(Cl)cc2)cs1)C1CCCCC1` ?
**A:** −2.8

**Q:** So what does the record say about LDH for `O=C(NNc1nc(-c2ccc(Br)cc2)cs1)c1ccc(F)cc1` ?
**A:** 4.9

* * *

- Test system: uninduced N2A cells
- Type: cell-based
- SETTINGS: cell death as percent of LDH released into medium vs total LDH, compound 10 μM
MEASURED_PROPERTY: LDH (%)
State the answer as a number, implicitly in %.

**Q:** So what does the record say about LDH for `O=C(CCc1ccccc1)NNc1nc(-c2ccc(Br)cc2)cs1` ?
**A:** 3.3

**Q:** So what does the record say about LDH for `O=C(NNc1nc(-c2ccccc2)cs1)c1ccccc1F` ?
**A:** 6.5

**Q:** So what does the record say about LDH for `O=C(NNc1nc(-c2cccc([N+](=O)[O-])c2)cs1)c1ccccc1Cl` ?
**A:** 43.0

**Q:** So what does the record say about LDH for `O=C(NNc1nc(-c2cc3ccccc3oc2=O)cs1)c1ccc(F)cc1` ?
**A:** 8.6

**Q:** So what does the record say about LDH for `COc1cccc(-c2csc(NNC(=O)c3cccs3)n2)c1` ?
**A:** 25.3

**Q:** So what does the record say about LDH for `O=C(NNc1nc(-c2ccc([N+](=O)[O-])cc2)cs1)c1ccc(-c2ccccc2)cc1` ?
**A:** 5.0

**Q:** So what does the record say about LDH for `O=C(NNc1nc(-c2ccc(Br)cc2)cs1)Nc1ccccc1` ?
**A:** 6.4

**Q:** So what does the record say about LDH for `O=C(NNc1nc(-c2ccc(F)cc2)cs1)c1ccc(Cl)cc1` ?
**A:** 56.1

**Q:** So what does the record say about LDH for `O=C(NNc1nc(-c2ccccc2)cs1)c1cccnc1` ?
**A:** 56.8

**Q:** So what does the record say about LDH for O=C(NNc1nc(-c2ccccc2)cs1)c1ccc(F)cc1 [Comp. 24] ?
**A:** 5.5

**Q:** So what does the record say about LDH for O=C(NNc1nc(C2C3CC4CC(C3)CC2C4)cs1)c1cc2ccccc2[nH]1 (stereo not shown) ?
**A:** −2.1

**Q:** So what does the record say about LDH for `Cc1sc(NNC(=O)c2ccc(-c3ccccc3)cc2)nc1-c1ccc([N+](=O)[O-])cc1` ?
**A:** 16.6

**Q:** So what does the record say about LDH for `O=C(NNc1nc(-c2ccc([N+](=O)[O-])cc2)cs1)c1cccnc1` ?
**A:** 12.9

**Q:** So what does the record say about LDH for `O=C(NNc1nc(-c2cc3ccccc3o2)cs1)c1ccc(Cl)cc1` ?
**A:** −0.6

**Q:** So what does the record say about LDH for `O=C(NNc1nc(-c2ccc3ccccc3c2)cs1)c1cc2ccccc2[nH]1` ?
**A:** 1.9

**Q:** So what does the record say about LDH for `O=C(NNc1nc(-c2ccc(N3CCCC3)cc2)cs1)c1ccc(F)cc1` ?
**A:** −1.1

**Q:** So what does the record say about LDH for `O=C(NNc1nc(-c2ccc(Br)cc2)cs1)c1ccc2c(c1)OCO2` ?
**A:** 4.6

**Q:** So what does the record say about LDH for `O=C(NNc1nc(-c2ccc3ccccc3c2)cs1)c1ccc(C(F)(F)F)cc1` ?
**A:** −7.6

**Q:** So what does the record say about LDH for `O=C(NNc1nc(-c2ccc(N3CCCC3)cc2)cs1)c1cccnc1` ?
**A:** 12.5

**Q:** So what does the record say about LDH for `Cc1sc(NNC(=O)c2ccc(F)cc2)nc1-c1ccccc1` ?
**A:** 18.4

**Q:** So what does the record say about LDH for `O=C(NNc1nc(-c2ccc(Br)cc2)cs1)c1ccc2ccccc2c1` ?
**A:** 4.2

**Q:** So what does the record say about LDH for `COc1cc(-c2csc(NNC(=O)c3ccc(C(F)(F)F)cc3)n2)cc(OC)c1O` ?
**A:** −10.4

**Q:** So what does the record say about LDH for `O=C(NNc1nc(-c2ccc([N+](=O)[O-])cc2)cs1)c1ccc2ccccc2c1` ?
**A:** 18.7

**Q:** So what does the record say about LDH for `N#Cc1ccc(-c2csc(NNC(=O)c3cc4ccccc4[nH]3)n2)cc1` ?
**A:** 2.7

**Q:** So what does the record say about LDH for `O=C(NNc1nc(-c2cc3ccccc3oc2=O)cs1)c1ccc(-c2ccccc2)cc1` ?
**A:** 44.7

**Q:** So what does the record say about LDH for `O=C(NNc1nc(-c2ccc(Cl)cc2)cs1)c1cc2ccccc2[nH]1` ?
**A:** −1.1

**Q:** So what does the record say about LDH for `O=C(NNc1nc(-c2ccc(N3CCCC3)cc2)cs1)c1ccc(-c2ccccc2)cc1` ?
**A:** 6.2

**Q:** So what does the record say about LDH for `O=C(NNc1nc(-c2ccc(Br)cc2)cs1)c1ccc(-c2ccccc2)cc1` ?
**A:** 4.9

**Q:** So what does the record say about LDH for `O=C(NNc1nc(-c2ccc([N+](=O)[O-])cc2)cs1)c1ccc2[nH]cnc2c1` ?
**A:** 5.2

**Q:** So what does the record say about LDH for `COc1cccc(-c2csc(NNC(=O)c3ccncc3)n2)c1` ?
**A:** 3.2

**Q:** So what does the record say about LDH for `O=C(NNc1nc(-c2ccc([N+](=O)[O-])cc2)cs1)Nc1ccccc1` ?
**A:** 2.1

* * *

Exercise: state measured log10 of DC50 for each of the compounds provided.
- TARGET_SYSTEM: tau construct K19 (Homo sapiens, UniProt P10636)
- PROTOCOL_SUMMARY: Thioflavine S (ThS) assay for aggregation of tau
- Assay type: biochemical
- SETTINGS: 10 μM tau construct K19, 2.5 μM heparin, ThS fluorescence; read-out: DC50
The base-10 logarithm of DC50, taken with DC50 in µM, is what appears here.

**Q:** Test system tau construct K19 (Homo sapiens, UniProt P10636); read-out log10 of DC50; what value for `O=C(NNc1nc(-c2ccc(N3CCCC3)cc2)cs1)c1ccc(F)cc1` ?
**A:** -0.15

**Q:** Test system tau construct K19 (Homo sapiens, UniProt P10636); read-out log10 of DC50; what value for `O=C(NNc1nc(-c2ccc(Br)cc2)cs1)c1ccc2ccccc2c1` ?
**A:** 2.23

**Q:** Test system tau construct K19 (Homo sapiens, UniProt P10636); read-out log10 of DC50; what value for `O=C(NNc1nc(-c2ccc([N+](=O)[O-])cc2)cs1)c1ccc2ccccc2c1` ?
**A:** -0.40

**Q:** Test system tau construct K19 (Homo sapiens, UniProt P10636); read-out log10 of DC50; what value for `O=C(NNc1nc(-c2cccc([N+](=O)[O-])c2)cs1)c1ccccc1F` ?
**A:** 1.59

**Q:** Test system tau construct K19 (Homo sapiens, UniProt P10636); read-out log10 of DC50; what value for `[N-]=[N+]=Nc1ccc(-c2csc(NNC(=O)c3ccc(F)cc3)n2)cc1` ?
**A:** 0.11

**Q:** Test system tau construct K19 (Homo sapiens, UniProt P10636); read-out log10 of DC50; what value for `O=C(NNc1nc(-c2ccccc2)cs1)c1cccs1` ?
**A:** 1.55

**Q:** Test system tau construct K19 (Homo sapiens, UniProt P10636); read-out log10 of DC50; what value for `O=C(NNc1nc(-c2ccccc2)cs1)c1ccccc1F` ?
**A:** 2.10

**Q:** Test system tau construct K19 (Homo sapiens, UniProt P10636); read-out log10 of DC50; what value for O=C(NNc1nc(-c2ccccc2)cs1)c1ccc(F)cc1 [Comp. 24] ?
**A:** 1.22
